Sourced from ChEMBL document CHEMBL5058577

Reported Population Normal (%) is given for each of the following compounds.
- System: Fibroblast
- Assay Remarks: Multiplex assay against human fibroblast
- Assay type: toxicity, cell-based
- Experimental Conditions: 12 h, 1 µM, compound concentration 1 uM, replicate 2
Please state the figure in %; there is no need to write the unit.

[
  {
    "Smiles Code": "Cc1nn(C)c2nc(NNC(=O)Nc3cc(Cl)nc(Cl)c3)cc(C(C)C)c12",
    "Population Normal (%)": 97
  },
  {
    "Smiles Code": "CCc1nn2c(C)cc(C)nc2c1Cc1ccc(-c2nnc(C3CCNCC3)o2)cc1",
    "Population Normal (%)": 93
  },
  {
    "Smiles Code": "COc1cc2nc(N3CCN(C(=O)COc4c(OC)cccc4C(C)C)CC3)nc(N)c2cc1OC.Cl.Cl",
    "Population Normal (%)": 90
  },
  {
    "Smiles Code": "S=C(NCCCc1c[nH]cn1)NCCCN(Cc1ccc(Cl)c(Cl)c1)c1ccc(Br)cn1",
    "Population Normal (%)": 95
  }
]

Now take the following compound into account.
Q: Would you mind telling me what Population Normal (%) value was observed for O=c1ccc2ccc(OCCCCN3CCN(c4cccc5sccc45)CC3)cc2[nH]1 ?
Result: 94
